assay: Caco-2 flux assay for cell permeability; assay type: in vitro ADME; conditions: human, Caco-2 cells, B to A
Square brackets hold non-standard residues; d marks the D form. Peptide text beside a SMILES is read from it. * marks the point of attachment. Dolaproine = CO[C@@H]([C@@H]1CCCN1)[C@@H](C)C(=O)O; Dil = CC[C@H](C)[C@H](NC)[C@@H](CC(=O)O)OC; X5 = C[C@@H](N*)[C@@H](O)c1ccccc1; NMeV = CN[C@H](C(=O)O)C(C)C
assay.endpoint: Papp B→A at 2 h (×10⁻⁶ cm/s)
Give bare numbers, in ×10⁻⁶ cm/s.

Provide one value: measured Papp B→A at 2 h of CC[C@H](C)[C@@H]([C@@H](CC(=O)N1CCC[C@H]1[C@H](OC)[C@@H](C)C(=O)N[C@H](C)[C@@H](O)c1ccccc1)OC)N(C)C(=O)[C@@H](NC(=O)[C@@H](NC)C(C)C)C(C)C [MMAE, monomethylauristatin E, reference compound] (H-[NMeV]V[Dil][Dolaproine]-X5)
7.3

meta.source: patent US20130122024A1
